Please provide measured MIC for the entries that follow.
Tested on: Streptococcus constellatus
measurement notes: Antibacterial activity against Streptococcus constellatus clinical isolate by broth microdilution method
Type: functional
Numbers only, in µg/mL.

Example entries begin here.
Form field MIC for item CO/N=C(\C(=O)N[C@@H]1C(=O)N2C(C(=O)O)=C(CSc3nc(=O)c(O)nn3C)CS[C@H]12)c1csc(N)n1 on Streptococcus constellatus: 0.03

MIC value, target or system Streptococcus constellatus, for CN(C)[C@@H]1C(O)=C(C(N)=O)C(=O)[C@@]2(O)C(O)=C3C(=O)c4c(O)cccc4[C@@](C)(O)[C@H]3C[C@@H]12 : 0.12

Shifting focus to the compound that follows.
Entry CCCCCCCCCC(=O)N[C@@H](Cc1c[nH]c2ccccc12)C(=O)N[C@H](CC(N)=O)C(=O)N[C@@H](CC(=O)O)C(=O)N[C@@H]1C(=O)NCC(=O)N[C@@H](CCCN)C(=O)N[C@@H](CC(=O)O)C(=O)N[C@H](C)C(=O)N[C@@H](CC(=O)O)C(=O)NCC(=O)N[C@H](CO)C(=O)N[C@@H]([C@H](C)CC(=O)O)C(=O)N[C@@H](CC(=O)c2ccccc2N)C(=O)O[C@@H]1C : MIC on Streptococcus constellatus = 0.25

Measured values drawn from ChEMBL document CHEMBL1275440 for this set.
